Target: BRG-1 (Homo sapiens, UniProt P51532)
Sequence (P51532 whole entry): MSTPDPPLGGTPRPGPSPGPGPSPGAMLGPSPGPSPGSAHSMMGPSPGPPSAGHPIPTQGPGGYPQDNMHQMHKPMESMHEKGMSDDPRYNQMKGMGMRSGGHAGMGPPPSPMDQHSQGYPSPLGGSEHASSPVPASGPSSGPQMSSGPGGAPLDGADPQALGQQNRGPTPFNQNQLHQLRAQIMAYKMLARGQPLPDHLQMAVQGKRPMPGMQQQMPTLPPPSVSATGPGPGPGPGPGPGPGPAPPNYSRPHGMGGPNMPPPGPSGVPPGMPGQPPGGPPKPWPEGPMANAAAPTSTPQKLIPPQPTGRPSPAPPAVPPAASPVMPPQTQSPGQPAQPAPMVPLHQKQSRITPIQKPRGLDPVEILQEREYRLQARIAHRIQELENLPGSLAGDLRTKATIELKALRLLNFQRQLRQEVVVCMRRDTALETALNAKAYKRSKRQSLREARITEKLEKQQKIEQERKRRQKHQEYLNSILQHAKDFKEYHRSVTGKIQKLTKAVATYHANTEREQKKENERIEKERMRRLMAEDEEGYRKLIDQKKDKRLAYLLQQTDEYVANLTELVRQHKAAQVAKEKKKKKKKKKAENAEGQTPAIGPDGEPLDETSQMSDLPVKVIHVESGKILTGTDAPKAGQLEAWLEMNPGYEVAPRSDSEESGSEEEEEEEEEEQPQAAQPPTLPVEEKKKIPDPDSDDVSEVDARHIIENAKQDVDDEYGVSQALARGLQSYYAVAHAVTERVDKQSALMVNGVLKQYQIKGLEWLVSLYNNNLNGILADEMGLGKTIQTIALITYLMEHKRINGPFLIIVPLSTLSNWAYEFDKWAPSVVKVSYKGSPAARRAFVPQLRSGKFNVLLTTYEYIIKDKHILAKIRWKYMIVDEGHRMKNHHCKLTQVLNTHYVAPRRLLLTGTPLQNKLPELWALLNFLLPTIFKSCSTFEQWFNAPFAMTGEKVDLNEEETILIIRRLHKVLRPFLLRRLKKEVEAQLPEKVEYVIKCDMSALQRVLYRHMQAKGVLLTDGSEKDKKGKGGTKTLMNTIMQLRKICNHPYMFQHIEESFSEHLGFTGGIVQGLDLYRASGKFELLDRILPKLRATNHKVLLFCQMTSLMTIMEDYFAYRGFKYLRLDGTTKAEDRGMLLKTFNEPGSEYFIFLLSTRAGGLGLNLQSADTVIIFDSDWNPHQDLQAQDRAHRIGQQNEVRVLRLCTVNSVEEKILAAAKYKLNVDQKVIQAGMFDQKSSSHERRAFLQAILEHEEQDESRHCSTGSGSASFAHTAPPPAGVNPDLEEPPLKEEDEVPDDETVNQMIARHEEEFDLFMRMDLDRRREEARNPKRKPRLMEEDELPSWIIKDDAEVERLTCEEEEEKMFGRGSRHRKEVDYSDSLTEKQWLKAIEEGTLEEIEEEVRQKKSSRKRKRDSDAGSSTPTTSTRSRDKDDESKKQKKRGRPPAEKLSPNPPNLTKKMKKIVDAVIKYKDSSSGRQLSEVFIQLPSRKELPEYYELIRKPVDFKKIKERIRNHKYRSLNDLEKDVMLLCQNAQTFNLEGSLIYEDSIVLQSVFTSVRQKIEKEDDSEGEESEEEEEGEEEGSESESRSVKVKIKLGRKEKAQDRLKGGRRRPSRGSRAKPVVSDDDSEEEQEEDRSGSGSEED
Experiment: ATPase catalytic activity assay (ADP-Glo), BRG-1
Measurement name: IC50

Below are worked cases with known answers.
Molecule | IC50
C[C@@]1(C#N)COCc2ccc(C(=O)NCc3cc4nc(-c5cncc(N6CC[C@@H](F)C6)n5)ccc4cn3)cc21 [Compound 291] | < 100 nM
C[C@@]1(C#N)COCc2ccc(C(=O)NCc3cc(N4CCc5ccc(C(F)F)cc5C4)ccn3)cc21 [Compound 63] | 500 to 1000 nM
C[C@@]1(C#N)COCc2ccc(C(=O)NCc3cc4nc(N5CCCC5)ccc4cn3)cc21 [Compound 514] | > 1000 nM
C[C@@]1(C#N)COCc2ncc(C(=O)NCc3cc4nc(-c5cccc(C6CC6)n5)ccc4nn3)cc21 [Compound 189] | 100 to 500 nM

Sample C[C@@]1(F)COCc2ccc(C(=O)NCc3cc4nc(-c5cccc(C6(CO)CC6)n5)ccc4cn3)cc21 [Compound 168] ; IC50 observed: 100 to 500 nM

Sample CN(C)c1nccc(N2CCc3cnc(CNC(=O)c4ccc5c(c4)[C@](C)(C#N)COC5)cc3C2)n1 [Compound 326] ; IC50 observed: 500 to 1000 nM

Sample C[C@@]1(C#N)COCc2ccc(C(=O)NCc3cc4c(nn3)CCN(c3cccc(N5CCC5)n3)C4)cc21 [Compound 234] ; IC50 observed: 500 to 1000 nM

Sample CC(F)(F)c1cncc(-c2ccc3cnc(CNC(=O)c4ccc5c(c4)[C@](C)(C#N)COC5)cc3n2)n1 [Compound 299] ; IC50 observed: 500 to 1000 nM

Sample C[C@@]1(C#N)COCc2ccc(C(=O)NCc3cc(N4CCC5CCCCC5C4)ccn3)cc21 (stereo partly drawn) [Compound 57] ; IC50 observed: > 1000 nM

====

Target: BRM (Homo sapiens)
Sequence (P51531 whole entry): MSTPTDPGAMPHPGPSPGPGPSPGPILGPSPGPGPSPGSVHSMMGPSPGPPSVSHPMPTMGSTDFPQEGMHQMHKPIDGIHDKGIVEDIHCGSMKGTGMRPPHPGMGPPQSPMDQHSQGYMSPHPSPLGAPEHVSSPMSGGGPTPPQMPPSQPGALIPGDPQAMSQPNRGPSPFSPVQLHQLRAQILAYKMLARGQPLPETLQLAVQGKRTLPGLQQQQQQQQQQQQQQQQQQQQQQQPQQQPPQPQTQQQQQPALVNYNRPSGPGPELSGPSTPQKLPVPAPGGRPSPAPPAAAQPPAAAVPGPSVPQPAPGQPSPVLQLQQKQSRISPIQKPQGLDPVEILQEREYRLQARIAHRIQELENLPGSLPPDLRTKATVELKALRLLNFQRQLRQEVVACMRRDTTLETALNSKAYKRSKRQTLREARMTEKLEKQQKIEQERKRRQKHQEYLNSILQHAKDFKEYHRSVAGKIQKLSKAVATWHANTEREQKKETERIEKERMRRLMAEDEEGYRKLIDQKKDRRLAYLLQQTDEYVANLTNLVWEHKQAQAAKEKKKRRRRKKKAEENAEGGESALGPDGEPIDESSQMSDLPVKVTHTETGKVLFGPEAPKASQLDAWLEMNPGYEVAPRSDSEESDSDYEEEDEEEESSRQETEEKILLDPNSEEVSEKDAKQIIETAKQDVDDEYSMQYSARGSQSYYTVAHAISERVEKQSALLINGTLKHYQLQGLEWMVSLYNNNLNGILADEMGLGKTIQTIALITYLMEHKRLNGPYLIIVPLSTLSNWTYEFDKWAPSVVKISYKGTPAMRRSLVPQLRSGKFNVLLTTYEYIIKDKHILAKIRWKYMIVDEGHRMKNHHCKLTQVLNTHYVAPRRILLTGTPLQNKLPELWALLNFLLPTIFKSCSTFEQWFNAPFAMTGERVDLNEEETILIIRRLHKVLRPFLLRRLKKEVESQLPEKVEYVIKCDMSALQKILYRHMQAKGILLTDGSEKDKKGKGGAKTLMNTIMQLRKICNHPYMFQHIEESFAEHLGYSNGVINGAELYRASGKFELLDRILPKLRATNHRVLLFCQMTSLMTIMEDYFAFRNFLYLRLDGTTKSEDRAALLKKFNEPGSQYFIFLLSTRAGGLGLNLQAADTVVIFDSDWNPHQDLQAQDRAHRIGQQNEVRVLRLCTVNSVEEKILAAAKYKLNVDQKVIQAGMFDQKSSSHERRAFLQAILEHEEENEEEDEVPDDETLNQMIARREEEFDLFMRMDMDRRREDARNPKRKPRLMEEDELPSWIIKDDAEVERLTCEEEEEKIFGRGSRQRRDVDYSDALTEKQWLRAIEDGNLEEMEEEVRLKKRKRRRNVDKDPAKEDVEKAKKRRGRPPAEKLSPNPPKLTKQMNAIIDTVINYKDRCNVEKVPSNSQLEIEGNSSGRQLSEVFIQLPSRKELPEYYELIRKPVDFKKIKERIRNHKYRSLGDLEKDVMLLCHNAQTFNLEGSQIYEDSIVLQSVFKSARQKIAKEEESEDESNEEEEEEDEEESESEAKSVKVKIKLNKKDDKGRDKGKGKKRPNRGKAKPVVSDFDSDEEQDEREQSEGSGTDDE
Assay: ATPase catalytic activity assay (ADP-Glo), BRM
Settings: BRM ATPase: IC50 (uM), 30 nM BRM, 400 μM ATP
Measured IC50 values are reported for all entries that follow.

Below are worked cases with known answers.
Compound structure | IC50
O=C(NCc1cc(C#Cc2ccccc2)ccn1)c1cccc(C2(C(F)F)COC2)c1 | > 1 µM
Cn1cc(F)c2c(-c3ccc4cnc(CNC(=O)c5ccc6c(c5)[C@](C)(C#N)COC6)cc4n3)cccc21 | < 0.1 µM
Cn1ncc2ccc(-c3ccc4cnc(CNC(=O)c5ccc6c(c5)[C@](C)(C#N)COC6)cc4n3)cc21 | < 0.1 µM

Sample `C[C@@]1(C#N)COCc2ccc(C(=O)NCc3cc(OCc4cccc(N5CCC5)n4)ccn3)cc21` ; IC50 observed: 0.1 to 0.5 µM

Sample `C[C@@]1(C#N)COCc2ccc(C(=O)NCc3cc(/C=C(\F)c4ccccc4)ccn3)cc21` ; IC50 observed: 0.1 to 0.5 µM

Sample `C[C@@]1(C#N)COCc2ccc(C(=O)NCc3cc4nc(-c5ccccc5)sc4cn3)cc21` ; IC50 observed: < 0.1 µM

Sample `COc1cccc(/C=C/c2ccnc(CNC(=O)c3ccc4c(c3)[C@](C)(C#N)COC4)c2)c1` ; IC50 observed: < 0.1 µM

====

Target: BRM (Homo sapiens)
Experiment: ATPase catalytic activity assay (ADP-Glo), BRM
Conditions: BRM ATPase: IC50 (uM), 30 nM BRM, 400 μM ATP
Measurement name: IC50

Molecule | IC50
C[C@@]1(C#N)COCc2ccc(C(=O)NCc3cc4nc(-c5ccc6ccc(=O)n(C7CC7)c6n5)ccc4cn3)cc21 [Compound 165] | < 0.1 µM

Sample COc1nn(C2COC2)cc1-c1ccc2cnc(CNC(=O)c3ccc4c(c3)[C@](C)(C#N)COC4)cc2n1 [Compound 236] ; IC50 observed: < 0.1 µM

Sample C[C@@H]1CN(c2nccc(-c3ccc4cnc(CNC(=O)c5ccc6c(c5)[C@](C)(C#N)COC6)cc4n3)n2)CCO1 [Compound 362] ; IC50 observed: < 0.1 µM

Sample Cn1ncc2c(-c3ccc4cnc(CNC(=O)c5ccc6c(c5)[C@](C)(C#N)COC6)cc4n3)cccc21 [Compound 182] ; IC50 observed: < 0.1 µM

Sample Cn1cc(-c2ccc3cnc(CNC(=O)c4ccc5c(c4)[C@](C)(C#N)COC5)cc3n2)cn1 [Compound 104] ; IC50 observed: 0.5 to 1 µM

Sample C[C@@]1(C#N)COCc2ncc(C(=O)NCc3cc4nc(-c5cc(F)cc(N6CCC6)c5)ccc4cn3)cc21 [Compound 487] ; IC50 observed: < 0.1 µM

Sample C[C@@]1(C#N)COCc2ncc(C(=O)NCc3cc4cc(-c5cncc(C6CC6)n5)ccc4cn3)cc21 [Compound 181] ; IC50 observed: < 0.1 µM

Sample COc1cc(F)ccc1-c1ccc2cnc(CNC(=O)c3ccc4c(c3)[C@](C)(C#N)COC4)cc2n1 [Compound 481] ; IC50 observed: < 0.1 µM
